# TARGET_OR_TEST_SYSTEM: Metabotropic glutamate receptor 5 (Homo sapiens) (UniProt P41594)
# Sequence (P41594 21-1212 limits assumed): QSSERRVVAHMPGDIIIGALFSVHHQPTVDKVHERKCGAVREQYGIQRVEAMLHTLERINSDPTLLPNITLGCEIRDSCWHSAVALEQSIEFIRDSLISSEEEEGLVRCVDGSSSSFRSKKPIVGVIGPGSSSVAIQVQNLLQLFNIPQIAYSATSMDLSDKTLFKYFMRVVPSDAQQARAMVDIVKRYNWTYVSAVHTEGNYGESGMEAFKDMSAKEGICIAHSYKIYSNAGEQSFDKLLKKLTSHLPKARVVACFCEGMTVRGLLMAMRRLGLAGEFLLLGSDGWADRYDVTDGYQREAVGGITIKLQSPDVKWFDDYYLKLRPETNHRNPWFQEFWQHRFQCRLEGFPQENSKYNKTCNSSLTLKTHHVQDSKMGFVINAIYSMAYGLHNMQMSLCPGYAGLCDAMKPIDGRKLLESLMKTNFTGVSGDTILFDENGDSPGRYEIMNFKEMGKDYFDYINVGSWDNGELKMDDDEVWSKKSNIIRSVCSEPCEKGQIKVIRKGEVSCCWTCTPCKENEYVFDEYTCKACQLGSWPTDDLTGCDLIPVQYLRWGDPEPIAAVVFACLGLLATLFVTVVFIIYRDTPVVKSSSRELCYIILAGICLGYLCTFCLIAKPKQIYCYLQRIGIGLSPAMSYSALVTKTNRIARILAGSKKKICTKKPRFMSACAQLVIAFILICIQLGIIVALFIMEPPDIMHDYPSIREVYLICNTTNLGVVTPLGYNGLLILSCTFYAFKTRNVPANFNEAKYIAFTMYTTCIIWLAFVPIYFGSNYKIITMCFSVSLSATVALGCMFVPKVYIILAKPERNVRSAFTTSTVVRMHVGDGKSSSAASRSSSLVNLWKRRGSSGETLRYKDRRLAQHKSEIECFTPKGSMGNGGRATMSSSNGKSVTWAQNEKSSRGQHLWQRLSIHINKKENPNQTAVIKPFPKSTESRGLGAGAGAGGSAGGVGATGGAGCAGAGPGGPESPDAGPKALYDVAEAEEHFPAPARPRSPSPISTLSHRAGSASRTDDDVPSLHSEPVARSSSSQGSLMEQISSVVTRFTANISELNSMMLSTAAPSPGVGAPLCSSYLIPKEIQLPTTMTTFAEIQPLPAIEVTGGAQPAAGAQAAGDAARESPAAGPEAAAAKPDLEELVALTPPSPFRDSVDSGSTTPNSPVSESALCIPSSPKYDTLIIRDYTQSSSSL
# RUN_DESCRIPTION: Phosphoinositide hydrolysis by human Metabotropic glutamate receptor 5 (mGluR5) expressed in non neuronal cells
# Format: cell-based
PROPERTY_MEASURED: Activity

### Prompt Quick check: Activity on Metabotropic glutamate receptor 5 (Homo sapiens) (UniProt P41594), item N[C@]1(C(=O)O)[C@H]2[C@@H](C[C@@H]1F)[C@@H]2C(=O)O ?
### Response > 100 µM

### Prompt Missing value: Activity, Metabotropic glutamate receptor 5 (Homo sapiens) (UniProt P41594), entry N[C@@H](CCC(=O)O)C(=O)O . Fill in?
### Response 4 µM

### Prompt Entry N[C@@]1(C(=O)O)CS[C@H]2[C@H](C(=O)O)[C@H]21 , system Metabotropic glutamate receptor 5 (Homo sapiens) (UniProt P41594): what Activity was measured?
### Response > 100 µM

### Prompt Lab note: need Activity for COC[C@@H]1[C@H](C(=O)O)[C@H]1[C@H](N)C(=O)O on Metabotropic glutamate receptor 5 (Homo sapiens) (UniProt P41594), anyone have it?
### Response > 100 µM

### Prompt Lab note: need Activity for N[C@@]1(C(=O)O)CC[C@H]2[C@H](C(=O)O)[C@H]21 on Metabotropic glutamate receptor 5 (Homo sapiens) (UniProt P41594), anyone have it?
### Response > 100 µM

### Prompt Notebook: pull reported Activity for Metabotropic glutamate receptor 5 (Homo sapiens) (UniProt P41594), entry N[C@H](C(=O)O)[C@H]1C[C@@H]1C(=O)O
### Response 17 µM

### Prompt Tell me reported Activity for N[C@@]1(C(=O)O)CC(=O)[C@@H]2[C@H]1[C@@]2(F)C(=O)O , tested with Metabotropic glutamate receptor 5 (Homo sapiens) (UniProt P41594).
### Response > 100 µM

### Prompt # query: Activity | item C[C@@H]1[C@H](C(=O)O)[C@H]1[C@H](N)C(=O)O | system: Metabotropic glutamate receptor 5 (Homo sapiens) (UniProt P41594)
### Response > 100 µM

### Prompt Recorded Activity for N[C@@]1(C(=O)O)CC[C@@H](C(=O)O)C1 with Metabotropic glutamate receptor 5 (Homo sapiens) (UniProt P41594), please?
### Response 15 µM

### Prompt Notebook entry, Metabotropic glutamate receptor 5 (Homo sapiens) (UniProt P41594) assay: Activity of N[C@@]1(C(=O)O)CO[C@H]2[C@H](C(=O)O)[C@H]21 = ?
### Response > 100 µM

### Prompt Param readout= Activity; system= Metabotropic glutamate receptor 5 (Homo sapiens) (UniProt P41594); entry= N[C@@]1(C(=O)O)CC[C@@H]2[C@H]1[C@@]2(F)C(=O)O ; returns value.
### Response > 100 µM

### Prompt Which measured Activity belongs to C[C@H]1[C@H](C(=O)O)[C@H]1[C@H](N)C(=O)O , tested on Metabotropic glutamate receptor 5 (Homo sapiens) (UniProt P41594)?
### Response > 100 µM

### Prompt Value wanted: Activity (Metabotropic glutamate receptor 5 (Homo sapiens) (UniProt P41594)) of entry N[C@H](C(=O)O)C1[C@@H](C(=O)O)[C@@H]1C(=O)O (stereo partly drawn)
### Response 389 µM

====

# TARGET_OR_TEST_SYSTEM: Metabotropic glutamate receptor 7 (Homo sapiens) (UniProt Q14831)
# Sequence (Q14831 whole entry): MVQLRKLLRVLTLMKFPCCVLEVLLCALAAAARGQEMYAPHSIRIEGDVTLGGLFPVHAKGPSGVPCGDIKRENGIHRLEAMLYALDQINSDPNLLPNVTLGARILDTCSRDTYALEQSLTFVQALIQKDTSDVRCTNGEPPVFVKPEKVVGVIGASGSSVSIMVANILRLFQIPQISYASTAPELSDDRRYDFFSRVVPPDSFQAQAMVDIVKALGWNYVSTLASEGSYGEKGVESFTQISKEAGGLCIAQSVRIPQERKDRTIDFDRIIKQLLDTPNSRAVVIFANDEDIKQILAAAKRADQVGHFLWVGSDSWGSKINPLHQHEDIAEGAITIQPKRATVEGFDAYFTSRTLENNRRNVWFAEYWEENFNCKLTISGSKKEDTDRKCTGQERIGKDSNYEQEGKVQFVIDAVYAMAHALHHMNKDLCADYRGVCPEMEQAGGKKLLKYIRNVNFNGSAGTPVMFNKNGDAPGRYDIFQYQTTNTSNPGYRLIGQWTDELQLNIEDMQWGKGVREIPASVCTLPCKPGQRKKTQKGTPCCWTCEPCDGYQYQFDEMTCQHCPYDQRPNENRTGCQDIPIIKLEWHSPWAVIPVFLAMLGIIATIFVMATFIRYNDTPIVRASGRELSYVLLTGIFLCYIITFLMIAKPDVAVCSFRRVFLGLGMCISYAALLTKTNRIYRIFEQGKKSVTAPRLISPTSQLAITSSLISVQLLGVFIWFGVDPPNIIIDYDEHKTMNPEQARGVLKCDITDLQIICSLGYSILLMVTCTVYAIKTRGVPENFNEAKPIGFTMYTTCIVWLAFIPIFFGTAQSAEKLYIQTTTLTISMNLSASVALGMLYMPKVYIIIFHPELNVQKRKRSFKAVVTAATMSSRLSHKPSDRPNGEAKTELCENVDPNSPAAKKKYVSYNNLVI
# RUN_DESCRIPTION: Inhibition of c-AMP by human Metabotropic glutamate receptor 7 (mGluR7) expressed in non-neuronal cells
# Type: cell-based
Assignment: determine reported Activity for the given molecules.

### Prompt For N[C@@]1(C(=O)O)CC[C@H]2[C@H](C(=O)O)[C@H]21 , what is its reported Activity?
### Response > 100 µM

### Prompt Need Activity, item N[C@@]1(C(=O)O)CC[C@@H]2[C@H]1[C@@]2(F)C(=O)O
### Response > 100 µM

### Prompt Return reported Activity; argument: C[C@H]1[C@H](C(=O)O)[C@H]1[C@H](N)C(=O)O
### Response > 100 µM

### Prompt Look up Activity for this molecule: N[C@H](C(=O)O)[C@H]1C[C@@H]1C(=O)O
### Response 47 µM

### Prompt Entry N[C@@H](CCC(=O)O)C(=O)O has what Activity?
### Response 5400 µM

### Prompt Activity for N[C@@]1(C(=O)O)CS[C@H]2[C@H](C(=O)O)[C@H]21 ?
### Response > 100 µM

### Prompt Dear colleague, I am looking for the recorded Activity of the following molecule: N[C@@]1(C(=O)O)CO[C@H]2[C@H](C(=O)O)[C@H]21
### Response > 100 µM

### Prompt I'd like to know its Activity. The molecule in question is N[C@@]1(C(=O)O)CC[C@@H](C(=O)O)C1
### Response 1000 µM

====

# TARGET_OR_TEST_SYSTEM: Metabotropic glutamate receptor 8 (Homo sapiens) (UniProt O00222)
# Sequence (O00222 whole entry): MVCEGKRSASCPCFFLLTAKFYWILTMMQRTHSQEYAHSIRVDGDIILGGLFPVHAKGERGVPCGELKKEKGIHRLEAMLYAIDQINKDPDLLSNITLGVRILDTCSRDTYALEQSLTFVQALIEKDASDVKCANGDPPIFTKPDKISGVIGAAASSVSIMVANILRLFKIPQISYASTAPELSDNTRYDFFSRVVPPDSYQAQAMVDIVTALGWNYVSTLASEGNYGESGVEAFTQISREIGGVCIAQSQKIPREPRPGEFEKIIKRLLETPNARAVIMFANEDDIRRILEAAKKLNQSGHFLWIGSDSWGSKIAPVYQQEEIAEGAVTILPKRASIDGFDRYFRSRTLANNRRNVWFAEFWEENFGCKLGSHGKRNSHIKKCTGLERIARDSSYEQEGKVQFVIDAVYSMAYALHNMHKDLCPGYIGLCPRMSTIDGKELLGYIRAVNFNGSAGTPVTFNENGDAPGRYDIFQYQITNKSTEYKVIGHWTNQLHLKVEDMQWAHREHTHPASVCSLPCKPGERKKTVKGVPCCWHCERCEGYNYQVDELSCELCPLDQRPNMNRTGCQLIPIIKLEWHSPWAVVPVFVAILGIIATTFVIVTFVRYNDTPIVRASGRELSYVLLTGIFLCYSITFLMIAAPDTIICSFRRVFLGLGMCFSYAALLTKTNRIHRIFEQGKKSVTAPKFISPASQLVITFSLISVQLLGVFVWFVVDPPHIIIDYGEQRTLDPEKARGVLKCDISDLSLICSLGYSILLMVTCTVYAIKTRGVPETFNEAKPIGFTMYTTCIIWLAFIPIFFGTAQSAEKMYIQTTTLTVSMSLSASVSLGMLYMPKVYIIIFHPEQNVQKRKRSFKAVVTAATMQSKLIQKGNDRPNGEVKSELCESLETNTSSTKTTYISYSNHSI
# RUN_DESCRIPTION: Inhibition of c-AMP by human Metabotropic glutamate receptor 8 (mGluR8) expressed in non-neuronal cells
# Format: cell-based
Cut-off 3 µM on Activity, inclusive. At or above means 1; below means -1.

### Prompt Dear colleague, could you confirm whether C[C@H]1[C@H](C(=O)O)[C@H]1[C@H](N)C(=O)O has Activity at or above 3 µM?
### Response -1

### Prompt Item N[C@@]1(C(=O)O)CO[C@H]2[C@H](C(=O)O)[C@H]21 with Activity of 3 µM or above?
### Response -1

### Prompt Could you tell me if the measured Activity of N[C@@]1(C(=O)O)CS[C@H]2[C@H](C(=O)O)[C@H]21 reaches 3 µM or more?
### Response 1

### Prompt Is the recorded value of Activity equal to or greater than 3 µM for this molecule? N[C@@]1(C(=O)O)CC[C@H]2[C@H](C(=O)O)[C@H]21
### Response 1

### Prompt Confirm if Activity reported for the molecule N[C@H](C(=O)O)C1[C@@H](C(=O)O)[C@@H]1C(=O)O (some centres undefined) is 3 µM or above.
### Response 1

### Prompt Record N[C@@]1(C(=O)O)CC[C@@H](C(=O)O)C1 ; criterion: Activity no lower than 3 µM. Met?
### Response 1

### Prompt Hello, I need to know if N[C@H](C(=O)O)[C@H]1C[C@@H]1C(=O)O has measured Activity not below 3 µM. Thanks!
### Response -1

### Prompt Reported Activity reaches at least 3 µM for C[C@@H]1[C@H](C(=O)O)[C@H]1[C@H](N)C(=O)O ?
### Response -1

### Prompt Has N[C@]1(C(=O)O)[C@H]2[C@@H](C[C@@H]1F)[C@@H]2C(=O)O a recorded Activity greater than or equal to 3 µM?
### Response 1

====

# TARGET_OR_TEST_SYSTEM: UniProtKB O15303
# Sequence (O15303 whole entry): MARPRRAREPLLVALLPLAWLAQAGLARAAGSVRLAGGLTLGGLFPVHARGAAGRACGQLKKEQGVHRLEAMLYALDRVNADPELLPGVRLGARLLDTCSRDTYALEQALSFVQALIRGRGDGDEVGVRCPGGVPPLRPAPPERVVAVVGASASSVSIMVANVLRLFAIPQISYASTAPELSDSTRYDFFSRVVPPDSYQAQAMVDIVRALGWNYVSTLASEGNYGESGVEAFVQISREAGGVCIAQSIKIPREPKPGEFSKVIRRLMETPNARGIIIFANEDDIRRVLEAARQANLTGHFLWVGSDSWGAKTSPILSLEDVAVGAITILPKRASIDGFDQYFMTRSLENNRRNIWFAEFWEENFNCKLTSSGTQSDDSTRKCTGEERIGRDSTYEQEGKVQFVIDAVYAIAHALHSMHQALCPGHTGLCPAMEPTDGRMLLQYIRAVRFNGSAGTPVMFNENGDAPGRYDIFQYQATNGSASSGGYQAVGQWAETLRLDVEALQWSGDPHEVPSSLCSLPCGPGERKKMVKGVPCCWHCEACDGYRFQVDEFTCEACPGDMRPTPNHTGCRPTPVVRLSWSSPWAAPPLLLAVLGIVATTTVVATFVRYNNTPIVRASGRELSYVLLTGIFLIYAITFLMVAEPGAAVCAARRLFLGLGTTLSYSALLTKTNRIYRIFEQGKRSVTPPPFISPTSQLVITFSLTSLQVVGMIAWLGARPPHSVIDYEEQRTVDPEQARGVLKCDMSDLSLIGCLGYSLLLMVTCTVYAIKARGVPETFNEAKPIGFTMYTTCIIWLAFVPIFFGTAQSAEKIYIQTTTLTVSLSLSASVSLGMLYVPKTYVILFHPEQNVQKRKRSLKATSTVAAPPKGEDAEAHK
# RUN_DESCRIPTION: Inhibition of c-AMP by human Metabotropic glutamate receptor 6 (mGluR6) expressed in non-neuronal cells
# Format: cell-based
PROPERTY_MEASURED: Activity (nM)
Lab book: enter the figure in nM, no units written.

### Prompt May I ask what Activity has been recorded for N[C@@]1(C(=O)O)CS[C@H]2[C@H](C(=O)O)[C@H]21 ?
### Response 2000

### Prompt Given the compound N[C@@]1(C(=O)O)CO[C@H]2[C@H](C(=O)O)[C@H]21 , what is its reported Activity?
### Response 400

### Prompt Query (compound): N[C@H](C(=O)O)C1[C@@H](C(=O)O)[C@@H]1C(=O)O (some centres undefined) ; field requested: Activity
### Response 40000

### Prompt Form field: reported Activity of N[C@@]1(C(=O)O)CC[C@@H](C(=O)O)C1
### Response 18000

### Prompt Would you kindly share the measured Activity for N[C@H](C(=O)O)[C@H]1C[C@@H]1C(=O)O ?
### Response 600

### Prompt Any idea what Activity was measured for N[C@@H](CCC(=O)O)C(=O)O ?
### Response 20000

### Prompt // Activity lookup, key: N[C@@]1(C(=O)O)CC[C@H]2[C@H](C(=O)O)[C@H]21
### Response 3000

### Prompt Quick one: Activity of C[C@H]1[C@H](C(=O)O)[C@H]1[C@H](N)C(=O)O ?
### Response 1200

====

Provide the recorded log10 of Activity for the entries that follow.
# TARGET_OR_TEST_SYSTEM: Metabotropic glutamate receptor 3 (Homo sapiens) (UniProt Q14832)
# Sequence (Q14832 23-879 limits assumed): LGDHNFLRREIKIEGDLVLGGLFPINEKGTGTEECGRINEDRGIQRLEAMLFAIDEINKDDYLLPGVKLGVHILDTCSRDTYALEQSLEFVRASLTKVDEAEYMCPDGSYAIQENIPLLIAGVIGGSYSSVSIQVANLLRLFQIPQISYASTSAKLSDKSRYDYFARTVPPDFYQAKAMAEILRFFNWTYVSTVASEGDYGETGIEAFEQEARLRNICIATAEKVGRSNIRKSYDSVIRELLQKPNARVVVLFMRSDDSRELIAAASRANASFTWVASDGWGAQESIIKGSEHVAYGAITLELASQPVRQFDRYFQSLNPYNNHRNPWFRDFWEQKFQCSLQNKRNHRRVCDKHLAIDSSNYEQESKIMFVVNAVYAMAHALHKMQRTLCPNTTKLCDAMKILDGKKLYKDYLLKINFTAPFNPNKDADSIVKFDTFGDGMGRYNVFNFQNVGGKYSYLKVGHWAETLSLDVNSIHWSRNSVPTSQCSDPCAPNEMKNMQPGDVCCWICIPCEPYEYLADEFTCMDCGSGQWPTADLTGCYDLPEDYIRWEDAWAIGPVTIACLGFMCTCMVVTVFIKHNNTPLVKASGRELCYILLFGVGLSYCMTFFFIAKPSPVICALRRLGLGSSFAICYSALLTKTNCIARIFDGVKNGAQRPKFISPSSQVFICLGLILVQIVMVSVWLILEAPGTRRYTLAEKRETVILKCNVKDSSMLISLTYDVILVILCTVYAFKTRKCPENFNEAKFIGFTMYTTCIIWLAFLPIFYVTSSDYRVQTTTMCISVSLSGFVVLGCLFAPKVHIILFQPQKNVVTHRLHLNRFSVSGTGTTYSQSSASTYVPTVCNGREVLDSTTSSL
# RUN_DESCRIPTION: Inhibition of c-AMP by human Metabotropic glutamate receptor 3 (mGluR3) expressed in non-neuronal cells
# Assay type: cell-based
Scale: decimal log of Activity, Activity in nM.

### Prompt For Metabotropic glutamate receptor 3 (Homo sapiens) (UniProt Q14832), provide log10 of Activity of N[C@H](C(=O)O)C1[C@@H](C(=O)O)[C@@H]1C(=O)O (stereo not given in full) please.
### Response 2.30

### Prompt Param readout= log10 of Activity; system= Metabotropic glutamate receptor 3 (Homo sapiens) (UniProt Q14832); entry= C[C@H]1[C@H](C(=O)O)[C@H]1[C@H](N)C(=O)O ; returns value.
### Response 1.58

### Prompt Checklist item: log10 of Activity tested on Metabotropic glutamate receptor 3 (Homo sapiens) (UniProt Q14832), entry N[C@@]1(C(=O)O)CC[C@@H](C(=O)O)C1 , value?
### Response 5.93

### Prompt Hi! What's the reported log10 of Activity for C[C@@H]1[C@H](C(=O)O)[C@H]1[C@H](N)C(=O)O on Metabotropic glutamate receptor 3 (Homo sapiens) (UniProt Q14832)?
### Response 3.30

### Prompt Param readout = log10 of Activity; param system = Metabotropic glutamate receptor 3 (Homo sapiens) (UniProt Q14832); param query = N[C@@H](CCC(=O)O)C(=O)O ; response: value
### Response 3.95

### Prompt GET /values?readout=log10 of Activity&system=Metabotropic glutamate receptor 3 (Homo sapiens) (UniProt Q14832)&item= N[C@@]1(C(=O)O)CS[C@H]2[C@H](C(=O)O)[C@H]21
### Response 0.90

### Prompt Request: log10 of Activity, test system Metabotropic glutamate receptor 3 (Homo sapiens) (UniProt Q14832), entry N[C@@]1(C(=O)O)CC[C@@H]2[C@H]1[C@@]2(F)C(=O)O
### Response 1.95

### Prompt What log10 of Activity appears in the records for this compound with Metabotropic glutamate receptor 3 (Homo sapiens) (UniProt Q14832)? N[C@@]1(C(=O)O)CO[C@H]2[C@H](C(=O)O)[C@H]21
### Response 0.70

### Prompt Form field: log10 of Activity recorded for N[C@@]1(C(=O)O)CC[C@H]2[C@H](C(=O)O)[C@H]21 with Metabotropic glutamate receptor 3 (Homo sapiens) (UniProt Q14832) (enter value)
### Response 1.32

### Prompt Give log10 of Activity (Metabotropic glutamate receptor 3 (Homo sapiens) (UniProt Q14832)) of the following compound: N[C@H](C(=O)O)[C@H]1C[C@@H]1C(=O)O
### Response 2.78
